B1: HDV Ribozyme (parent)
chain: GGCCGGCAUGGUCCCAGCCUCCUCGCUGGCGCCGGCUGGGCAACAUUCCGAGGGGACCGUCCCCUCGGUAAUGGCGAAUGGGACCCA

Variants of: B1
assay.notes: self-cleavage, relative activity (ratio to wild type); higher = more cleavage; co-transcriptional
measurement.kind: self-cleavage
I'd appreciate a reply containing only the number, no unit.

Solved cases (3 shown):
GGCCGGAAUGGUCCCAGCCUCCUCGCUGGCGCCGGCUGGGCAACAUUCCGAGGGGACCGUACCCUCGGUAAUGGCGAAUGGGACCCA [C7A C61A]: 0.692
GGCCGGCAUGUUCCCAGCCUCCUCGCUGGCGCCGGCUGGGCAACAUUCCGAGGGGACCGUCCCCUCGGUAACGGCGAAUGGGACCCA [G11U U72C]: 0.231
GGCCGGCAUAGUCCCAGCCUCCUGGCUGGCGCCGGCUGGGCAACAUUCCGAGGGGACCGUCCCCUCGGUAAUGGCGAAUGGGACCCA [G10A C24G]: 0.061

Given the variant GGCCGGCAUGGUCCCAGCCGCCUCGCUGGCGCCGGCUGGGCAACAUUCCGAGGGGACCGUACCCUCGGUAAUGGCGAAUGGGACCCA [U20G C61A] , write its reported self-cleavage.
0.142

Given the variant GGCCGGCAUGGUCCCAGCCUCCUCGCAGGCGCCGGCUGGGCAACAUUCCGAGGGGACCGUCCCCUCGGUAAUGGCGAAUGGGACCCG [U27A A87G] , write its reported self-cleavage.
0.847

Given the variant GGCCGGCAUGGUCCCAGCCUCCUCGCUGGCGCCGGCUGGGCAACAUACCGAGGGGACCGUCCCCUCGGUAAUGCCGAAUGGGACCCA [U47A G74C] , write its reported self-cleavage.
0.104

Given the variant GGCCGGCAUGGUCCCAGCCUCCUCGCUGGCGCCGGAUGGGCAACAUUCCGAGGGGACCGUCCCCUCGGUAAUGGCGAAUGGUACCCA [C36A G82U] , write its reported self-cleavage.
0.0839

Given the variant GGCCGGCAUGGUCCCAGCCUCCUCGCUGGCGCCGGCUAGGCAACACUCCGAGGGGACCGUCCCCUCGGUAAUGGCGAAUGGGACCCA [G38A U46C] , write its reported self-cleavage.
0.138

Given the variant GGCCGGCAUGGUCCCAGCCUCCUCGCUAGCGCCGGCUGGGCAACAUUCCGAGGGGACCGUCCCCUAGGUAAUGGCGAAUGGGACCCA [G28A C66A] , write its reported self-cleavage.
0.0811

Given the variant GGCCGGCAUGUUCCCAGCCUCCUCGCUGGCGCCGGCUGGGCAACAUUCCGAGGGGACCGUCCCCUCGGUAAUGGCUAAUGGGACCCA [G11U G76U] , write its reported self-cleavage.
0.596

Given the variant GGCCAGCAUGGUCCCAGCCUCCUCGCUGGCGCCGUCUGGGCAACAUUCCGAGGGGACCGUCCCCUCGGUAAUGGCGAAUGGGACCCA [G5A G35U] , write its reported self-cleavage.
0.0396

Given the variant GGCCGGCAUGGUCCCAGCCUCCUCGCUGGCGCCGGGUGGGCAACAUUCCGAGGGGACCGUCCCCUCGGUAAUGCCGAAUGGGACCCA [C36G G74C] , write its reported self-cleavage.
0.0723

Given the variant GGCCGGCAUGGACCCAGCCUCCUCGCUGGCGACGGCUGGGCAACAUUCCGAGGGGACCGUCCCCUCGGUAAUGGCGAAUGGGACCCA [U12A C32A] , write its reported self-cleavage.
0.131

Given the variant GGCCGGCAUGGUCCCAGCCUCCUCGCUGGCGCCGGCUGGGCUACAUUCCGAGGGGACCGUCCCCUCGGUAAUUGCGAAUGGGACCCA [A42U G73U] , write its reported self-cleavage.
0.378

Given the variant GGCCGGCAUGGUCCCAACCUCCGCGCUGGCGCCGGCUGGGCAACAUUCCGAGGGGACCGUCCCCUCGGUAAUGGCGAAUGGGACCCA [G17A U23G] , write its reported self-cleavage.
0.427

Given the variant GGCCGGCAUGGUCCCAGCCUCCUCGCUGGCGCCGGUUGGGCAACAUUCCGAGGGUACCGUCCCCUCGGUAAUGGCGAAUGGGACCCA [C36U G55U] , write its reported self-cleavage.
0.8

Given the variant GGCCGGCAUGGUCCCAGUCUCCUCGCUGGCGCCGGCUGGGCAACAUUCCGAGGGCACCGUCCCCUCGGUAAUGGCGAAUGGGACCCA [C18U G55C] , write its reported self-cleavage.
0.893

Given the variant GGCCGGCAUGGUCCCAGCCUCCUCGCUGGCGCCGGCUGGGCAACAUGCCGAGGGGACCGUCUCCUCGGUAAUGGCGAAUGGGACCCA [U47G C62U] , write its reported self-cleavage.
0.923

Given the variant GGCCGGCAUGGUCCCAGCCUCCUCGCUGGCGCCGGCUGGGCAACAUUCCGAGGGGAUCGUCCCCUCGGUAAUGGCGAAUGGGAGCCA [C57U C84G] , write its reported self-cleavage.
0.673
